The entries below are paired with their reported activity coefficient.
- test: activity coefficient (dimensionless); of the first substance listed, at infinite dilution; xn = mol fraction of the nth substance listed
- test context: 368.15 K; 101.33 kPa; Liquid; Chromatography; x1 = 0

compound	activity coefficient
CCOC(C)(C)C [2-ethoxy-2-methylpropane] + CCCC[P+](CCCC)(CCCC)CCCC.O=S(=O)([N-]S(=O)(=O)C(F)(F)F)C(F)(F)F	2.78
CCCCCC [hexane] + CCCC[P+](CCCC)(CCCC)CCCC.O=S(=O)([N-]S(=O)(=O)C(F)(F)F)C(F)(F)F	4.41
Cc1ccc(C)cc1 [1,4-dimethylbenzene] + CCCC[P+](CCCC)(CCCC)CCCC.O=S(=O)([N-]S(=O)(=O)C(F)(F)F)C(F)(F)F	1.6
Cc1ccccc1 [toluene] + CCCC[P+](CCCC)(CCCC)CCCC.O=S(=O)([N-]S(=O)(=O)C(F)(F)F)C(F)(F)F	1.16
CCC(=O)CC [pentan-3-one] + CCCC[P+](CCCC)(CCCC)CCCC.O=S(=O)([N-]S(=O)(=O)C(F)(F)F)C(F)(F)F	0.66
CCOC(C)=O [ethyl acetate] + CCCC[P+](CCCC)(CCCC)CCCC.O=S(=O)([N-]S(=O)(=O)C(F)(F)F)C(F)(F)F	0.869
CCOCC [diethyl ether] + CCCC[P+](CCCC)(CCCC)CCCC.O=S(=O)([N-]S(=O)(=O)C(F)(F)F)C(F)(F)F	1.7
CCCCC [pentane] + CCCC[P+](CCCC)(CCCC)CCCC.O=S(=O)([N-]S(=O)(=O)C(F)(F)F)C(F)(F)F	3.62
CC(C)(C)O [2-methylpropan-2-ol] + CCCC[P+](CCCC)(CCCC)CCCC.O=S(=O)([N-]S(=O)(=O)C(F)(F)F)C(F)(F)F	1.4
CO [methanol] + CCCC[P+](CCCC)(CCCC)CCCC.O=S(=O)([N-]S(=O)(=O)C(F)(F)F)C(F)(F)F	1.23
C=CCCCCCCCC [1-decene] + CCCC[P+](CCCC)(CCCC)CCCC.O=S(=O)([N-]S(=O)(=O)C(F)(F)F)C(F)(F)F	7.48
CCC(C)O (configuration not stated) [butan-2-ol] + CCCC[P+](CCCC)(CCCC)CCCC.O=S(=O)([N-]S(=O)(=O)C(F)(F)F)C(F)(F)F	1.49
CCO [ethanol] + CCCC[P+](CCCC)(CCCC)CCCC.O=S(=O)([N-]S(=O)(=O)C(F)(F)F)C(F)(F)F	1.36
COC(C)(C)C [2-methoxy-2-methylpropane] + CCCC[P+](CCCC)(CCCC)CCCC.O=S(=O)([N-]S(=O)(=O)C(F)(F)F)C(F)(F)F	1.73
CC1CCCCC1 [methylcyclohexane] + CCCC[P+](CCCC)(CCCC)CCCC.O=S(=O)([N-]S(=O)(=O)C(F)(F)F)C(F)(F)F	3.49
c1ccccc1 [benzene] + CCCC[P+](CCCC)(CCCC)CCCC.O=S(=O)([N-]S(=O)(=O)C(F)(F)F)C(F)(F)F	0.869
C#CCCCCC [1-heptyne] + CCCC[P+](CCCC)(CCCC)CCCC.O=S(=O)([N-]S(=O)(=O)C(F)(F)F)C(F)(F)F	2.35
CCCCCCCCC [nonane] + CCCC[P+](CCCC)(CCCC)CCCC.O=S(=O)([N-]S(=O)(=O)C(F)(F)F)C(F)(F)F	8.15
CCC(=O)OC [methyl propanoate] + CCCC[P+](CCCC)(CCCC)CCCC.O=S(=O)([N-]S(=O)(=O)C(F)(F)F)C(F)(F)F	0.857
CCc1ccccc1 [ethylbenzene] + CCCC[P+](CCCC)(CCCC)CCCC.O=S(=O)([N-]S(=O)(=O)C(F)(F)F)C(F)(F)F	1.54
CC(C)=O [acetone] + CCCC[P+](CCCC)(CCCC)CCCC.O=S(=O)([N-]S(=O)(=O)C(F)(F)F)C(F)(F)F	0.524
CCCCCCC [heptane] + CCCC[P+](CCCC)(CCCC)CCCC.O=S(=O)([N-]S(=O)(=O)C(F)(F)F)C(F)(F)F	5.38
C=CCCCCC [1-heptene] + CCCC[P+](CCCC)(CCCC)CCCC.O=S(=O)([N-]S(=O)(=O)C(F)(F)F)C(F)(F)F	4
COC(C)=O [methyl ethanoate] + CCCC[P+](CCCC)(CCCC)CCCC.O=S(=O)([N-]S(=O)(=O)C(F)(F)F)C(F)(F)F	0.785
C#CCCC [1-pentyne] + CCCC[P+](CCCC)(CCCC)CCCC.O=S(=O)([N-]S(=O)(=O)C(F)(F)F)C(F)(F)F	1.58
C1CCOC1 [tetrahydrofuran] + CCCC[P+](CCCC)(CCCC)CCCC.O=S(=O)([N-]S(=O)(=O)C(F)(F)F)C(F)(F)F	0.653
O [water] + CCCC[P+](CCCC)(CCCC)CCCC.O=S(=O)([N-]S(=O)(=O)C(F)(F)F)C(F)(F)F	3.85
